SUBJECT_OF_TEST: PAK4 (Homo sapiens, UniProt O96013)
Sequence (O96013 whole entry): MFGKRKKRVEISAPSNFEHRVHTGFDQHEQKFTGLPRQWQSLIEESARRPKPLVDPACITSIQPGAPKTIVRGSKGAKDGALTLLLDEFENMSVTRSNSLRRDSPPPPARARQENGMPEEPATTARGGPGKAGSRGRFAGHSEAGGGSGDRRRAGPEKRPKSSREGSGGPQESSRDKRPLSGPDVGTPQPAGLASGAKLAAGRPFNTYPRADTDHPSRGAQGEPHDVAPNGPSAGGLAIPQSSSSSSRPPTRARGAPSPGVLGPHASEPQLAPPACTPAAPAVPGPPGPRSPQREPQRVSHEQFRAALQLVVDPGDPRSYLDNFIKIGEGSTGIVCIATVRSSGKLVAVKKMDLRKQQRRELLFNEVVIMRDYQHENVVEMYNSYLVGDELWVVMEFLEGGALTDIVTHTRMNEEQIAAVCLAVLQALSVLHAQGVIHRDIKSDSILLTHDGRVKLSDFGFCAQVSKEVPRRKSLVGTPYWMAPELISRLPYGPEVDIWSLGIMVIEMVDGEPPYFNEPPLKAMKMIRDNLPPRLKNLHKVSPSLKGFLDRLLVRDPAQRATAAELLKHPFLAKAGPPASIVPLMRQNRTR
TEST_PROTOCOL: Z'-LYTE FRET kinase inhibition assay
Format: biochemical
Parameters: purchased Invitrogen
MEASURED_METRIC: IC50

So what's the measured IC50 for this one? CC(C)NC(=O)N1CC[C@H](NC2=Nc3cc(F)ccc3N(CC(F)F)c3ccc(Cl)cc32)C1 [NVS-PAK1-1, reference compound] > 10 µM

Find the recorded IC50 belonging to O=C1CCC(N2C(=O)c3cccc(NCCCCCCCCNC(=O)N4CC[C@H](NC5=Nc6cc(F)ccc6N(CC(F)F)c6ccc(Cl)cc65)C4)c3C2=O)C(=O)N1 (stereo partly shown) and report it. > 10 µM

Fill in the blank: the reported IC50 of O=C1CCC(N2C(=O)c3cccc(NCCOCCOCCC(=O)N4CC[C@H](NC5=Nc6cc(F)ccc6N(CC(F)F)c6ccc(Cl)cc65)C4)c3C2=O)C(=O)N1 (stereo partly shown) is ____. 0.152 µM

Reported IC50 for Cc1ncsc1-c1ccc([C@H](C)NC(=O)C2C[C@@H](O)CN2C(=O)[C@@H](NC(=O)CCCCCCCC(=O)N2CC[C@H](NC3=Nc4cc(F)ccc4N(CC(F)F)c4ccc(Cl)cc43)C2)C(C)(C)C)cc1 (stereo partly shown) : what is it? > 10 µM

If you can, please state the reported IC50 value of O=C1CCC(N2C(=O)c3cccc(NCCOCCOCCNC(=O)N4CC[C@H](NC5=Nc6cc(F)ccc6N(CC(F)F)c6ccc(Cl)cc65)C4)c3C2=O)C(=O)N1 (stereo partly shown) . 3.86 µM

What measured IC50 goes with O=C1CCC(N2C(=O)c3cccc(NCCCCCCC(=O)N4CC[C@H](NC5=Nc6cc(F)ccc6N(CC(F)F)c6ccc(Cl)cc65)C4)c3C2=O)C(=O)N1 (stereo partly shown) ? > 1 µM

Endpoint output: IC50 of O=C1CCC(N2C(=O)c3cccc(NCCCC(=O)N4CC[C@H](NC5=Nc6cc(F)ccc6N(CC(F)F)c6ccc(Cl)cc65)C4)c3C2=O)C(=O)N1 (stereo partly shown) . Value? > 10 µM

---

SUBJECT_OF_TEST: UniProt Q13153
Sequence (Q13153 270-521 limits assumed): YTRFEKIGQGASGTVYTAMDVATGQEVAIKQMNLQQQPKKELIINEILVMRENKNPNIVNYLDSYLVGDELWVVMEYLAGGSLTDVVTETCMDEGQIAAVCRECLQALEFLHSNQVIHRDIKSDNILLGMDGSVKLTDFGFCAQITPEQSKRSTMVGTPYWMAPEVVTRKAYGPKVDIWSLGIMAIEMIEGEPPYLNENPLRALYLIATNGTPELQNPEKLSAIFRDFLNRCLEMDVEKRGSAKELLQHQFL
TEST_PROTOCOL: Z'-LYTE FRET kinase inhibition assay
For each entry below, report its IC50 value.

Please look up its IC50: O=C1CCC(N2C(=O)c3cccc(NCCOCCOCCC(=O)N4CC[C@H](NC5=Nc6cc(F)ccc6N(CC(F)F)c6ccc(Cl)cc65)C4)c3C2=O)C(=O)N1 (stereo partly drawn) [BJG-05-014] 432 nM

Data request, read-out IC50, for Cc1ncsc1-c1ccc([C@H](C)NC(=O)C2C[C@@H](O)CN2C(=O)[C@@H](NC(=O)CCCCCCCC(=O)N2CC[C@H](NC3=Nc4cc(F)ccc4N(CC(F)F)c4ccc(Cl)cc43)C2)C(C)(C)C)cc1 (stereo partly drawn) [BJG-05-020] > 10000 nM

What value of IC50 has been reported for the following molecule? O=C1CCC(N2C(=O)c3cccc(NCCCCCCC(=O)N4CC[C@H](NC5=Nc6cc(F)ccc6N(CC(F)F)c6ccc(Cl)cc65)C4)c3C2=O)C(=O)N1 (stereo partly drawn) [BJG-05-017] > 1110 nM

Please give the measured IC50 for this molecule: O=C1CCC(N2C(=O)c3cccc(NCCCCCCCCNC(=O)N4CC[C@H](NC5=Nc6cc(F)ccc6N(CC(F)F)c6ccc(Cl)cc65)C4)c3C2=O)C(=O)N1 (stereo partly drawn) [BJG-05-039] 233 nM

Returns the measured IC50 for the input molecule. Input: Cc1ccc(CO)cc1N(Cc1ccccc1C#N)c1nc(Nc2ccc(N3CCN(C(=O)CCOCCOCCNc4cccc5c4C(=O)N(C4CCC(=O)NC4=O)C5=O)CC3)c(S(C)(=O)=O)c2)ncc1F (stereo not drawn) [BJG-05-094] 103 nM

Which IC50 value is on record for O=C1CCC(N2C(=O)c3cccc(NCCCC(=O)N4CC[C@H](NC5=Nc6cc(F)ccc6N(CC(F)F)c6ccc(Cl)cc65)C4)c3C2=O)C(=O)N1 (stereo partly drawn) [BJG-05-019] ? 6300 nM

---

SUBJECT_OF_TEST: UniProt Q13153
TEST_PROTOCOL: Z'-LYTE FRET kinase inhibition assay
Exercise: state measured pIC50 for each of the molecules provided.
# log scale: pIC50 equals minus log10 of the concentration in mol/L

# get_value(readout='pIC50', item= Cc1ccc(CO)cc1N(Cc1ccccc1C#N)c1nc(Nc2ccc(N3CCN(CCOCCOCCOCCOCCNc4cccc5c4C(=O)N(C4CCC(=O)NC4=O)C5=O)CC3)c(S(C)(=O)=O)c2)ncc1F (centres unmarked) ) 7.44

Recorded pIC50 of O=C1CCC(N2C(=O)c3cccc(NCCOCCOCCNC(=O)N4CC[C@H](NC5=Nc6cc(F)ccc6N(CC(F)F)c6ccc(Cl)cc65)C4)c3C2=O)C(=O)N1 (some centres unmarked) , please. 5.83

If you can, please state the reported pIC50 value of O=C1CCC(N2C(=O)c3cccc(NCCCCCNC(=O)N4CC[C@H](NC5=Nc6cc(F)ccc6N(CC(F)F)c6ccc(Cl)cc65)C4)c3C2=O)C(=O)N1 (some centres unmarked) . 6.23

Item under review: Cc1ccc(CO)cc1N(Cc1ccccc1C#N)c1nc(Nc2ccc(N3CCN(CCOCCOCCNc4cccc5c4C(=O)N(C4CCC(=O)NC4=O)C5=O)CC3)c(S(C)(=O)=O)c2)ncc1F (centres unmarked) . Reported pIC50? 7.49

---

Tested on: OVCAR3 cells
TEST_PROTOCOL: Cell proliferation, MTT assay
Format: cell-based
DETAILS: Homo sapiens, OVCAR-3, OVCAR3 cells; first statement of b311; read-out: EC50, anti-proliferative
MEASURED_METRIC: pEC50
Conceptually, pEC50 converts a concentration in mol/L into minus its log10.

Quick check: pEC50 of O=C1CCC(N2C(=O)c3cccc(NCCCCCCCCNC(=O)N4CC[C@H](NC5=Nc6cc(F)ccc6N(CC(F)F)c6ccc(Cl)cc65)C4)c3C2=O)C(=O)N1 (stereo partly shown) ? 8.08

---

Tested on: MCF7 cells
TEST_PROTOCOL: Cell proliferation, MTT assay
Assay type: cell-based
DETAILS: Homo sapiens, MCF7, MCF7 cells; first statement of b311; read-out: EC50, anti-proliferative
MEASURED_METRIC: EC50 (nM)
Express it in nM; write the number only.

Requested field: EC50. Item: O=C1CCC(N2C(=O)c3cccc(NCCCCCCCCNC(=O)N4CC[C@H](NC5=Nc6cc(F)ccc6N(CC(F)F)c6ccc(Cl)cc65)C4)c3C2=O)C(=O)N1 (stereo partly shown) 3

---

PAK2 (Homo sapiens, UniProt Q13177) measurements of IC50, listed per entry.
Sequence (Q13177 whole entry): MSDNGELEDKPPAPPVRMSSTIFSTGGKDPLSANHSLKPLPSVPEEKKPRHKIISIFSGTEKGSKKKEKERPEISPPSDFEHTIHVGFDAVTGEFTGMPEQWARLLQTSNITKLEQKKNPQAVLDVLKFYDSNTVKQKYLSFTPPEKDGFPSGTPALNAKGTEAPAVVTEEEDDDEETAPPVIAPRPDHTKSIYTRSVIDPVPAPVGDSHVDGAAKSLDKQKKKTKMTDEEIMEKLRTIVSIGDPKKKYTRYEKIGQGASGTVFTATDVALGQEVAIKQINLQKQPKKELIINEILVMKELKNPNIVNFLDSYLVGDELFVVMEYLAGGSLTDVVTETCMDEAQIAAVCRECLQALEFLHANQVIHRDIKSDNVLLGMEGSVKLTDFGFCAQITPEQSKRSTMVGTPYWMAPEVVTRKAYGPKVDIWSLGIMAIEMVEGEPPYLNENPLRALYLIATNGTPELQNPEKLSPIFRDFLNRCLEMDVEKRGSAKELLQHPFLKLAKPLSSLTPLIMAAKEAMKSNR

Tell me reported IC50 for O=C1CCC(N2C(=O)c3cccc(NCCCC(=O)N4CC[C@H](NC5=Nc6cc(F)ccc6N(CC(F)F)c6ccc(Cl)cc65)C4)c3C2=O)C(=O)N1 (some centres unmarked) , tested with PAK2 (Homo sapiens, UniProt Q13177). > 10 µM

Test system PAK2 (Homo sapiens, UniProt Q13177); read-out IC50; what value for O=C1CCC(N2C(=O)c3cccc(NCCCCCCCCNC(=O)N4CC[C@H](NC5=Nc6cc(F)ccc6N(CC(F)F)c6ccc(Cl)cc65)C4)c3C2=O)C(=O)N1 (some centres unmarked) ? > 10 µM
